Recorded values, source patent US20220348590A1.

# System tested: human recombinant COX2 (hCOX2) (UniProt P35354)
# Assay protocol: LCMS-based COX2 enzymatic inhibition assay (PGE2 quantification)
# Format: biochemical
# Set-up: COX2 2 minutes pge2/pge2d4 area ratio Avg; other: 2 minutes; readout pge2/pge2d4 area ratio; average; COX2 2 minutes pge2/pge2d4 area ratio Avg; LLE; average LLE; COX2 2 minutes pge2 area (counts) Avg; readout pge2 area (counts); other: 2 min; "ovine COX2 (oCOX2), human recombinant COX2 (hCOX2)"
# Settings: 2 minutes; readout pge2 area (counts); average; read-out: COX2 2 minutes pge2 area (counts) Avg. IC50
Recorded metric: IC50 (nM)

[
  {
    "Compound": "COc1cc(NCc2cccs2)nc(-c2ccc(S(C)(=O)=O)cc2)c1",
    "Recorded metric": "IC50",
    "Units label": "nM",
    "Recorded measurement": 20
  },
  {
    "Compound": "CS(=O)(=O)c1ccc(-c2cncc(NC[C@@H]3CCCO3)n2)cc1",
    "Recorded metric": "IC50",
    "Units label": "nM",
    "Recorded measurement": 1840
  },
  {
    "Compound": "CS(=O)(=O)c1ccc(-n2ccc3ccc([C@@H](O)c4cccs4)nc32)cc1 (single isomer, unassigned)",
    "Recorded metric": "IC50",
    "Units label": "nM",
    "Recorded measurement": 1440
  },
  {
    "Compound": "CS(=O)(=O)c1ccc(-c2cncc(OCc3ccc(Cl)o3)n2)cc1",
    "Recorded metric": "IC50",
    "Units label": "nM",
    "Recorded measurement": 1660
  }
]

* * *

# System tested: ovine COX-1 (oCOX-1) (Ovis aries)
# Construct: purchased Cayman Chemicals (Ann Arbor, Mich.)
# Sequence (P05979 25-600): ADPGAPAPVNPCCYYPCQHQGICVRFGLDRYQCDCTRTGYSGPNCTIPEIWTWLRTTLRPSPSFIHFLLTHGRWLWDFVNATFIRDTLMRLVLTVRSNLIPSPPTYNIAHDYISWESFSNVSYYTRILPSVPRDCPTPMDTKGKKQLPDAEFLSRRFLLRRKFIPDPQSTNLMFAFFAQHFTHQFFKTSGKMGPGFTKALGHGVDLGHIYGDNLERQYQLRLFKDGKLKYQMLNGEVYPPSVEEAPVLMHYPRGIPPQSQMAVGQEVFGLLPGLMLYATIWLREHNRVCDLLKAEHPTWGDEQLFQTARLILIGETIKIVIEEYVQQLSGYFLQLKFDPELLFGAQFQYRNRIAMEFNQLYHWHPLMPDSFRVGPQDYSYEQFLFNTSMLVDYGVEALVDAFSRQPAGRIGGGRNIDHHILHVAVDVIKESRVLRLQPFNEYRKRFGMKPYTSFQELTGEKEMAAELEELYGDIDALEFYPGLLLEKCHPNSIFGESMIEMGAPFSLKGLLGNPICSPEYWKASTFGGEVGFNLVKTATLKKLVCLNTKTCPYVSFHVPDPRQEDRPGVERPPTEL
# Assay protocol: LCMS-based COX-1 enzymatic inhibition assay (PGE2 quantification)
# Assay type: biochemical
# Settings: 10 minutes; readout pge2/pge2d4 area ratio; average LLE
# Excerpt: We have adapted a previously reported cyclooxygenase enzymatic assay utilizing LCMS quantification of PGE2 as the product of COX-1 and COX2 catalyzed conversion of arachidonic acid to evaluate the binding properties of newly synthesized ligands [Cao, 2011]. […] Using these enzymatic assays, we have evaluated>200 newly synthesized ligands against COX2 and >20 ligands against COX-1. […]
Reported COX1 10 minutes pge2/pge2d4 area ratio Avg. LLE values are given for each entry in this list.
Recorded metric: COX1 10 minutes pge2/pge2d4 area ratio Avg. LLE

[
  {
    "Molecule": "CS(=O)(=O)c1ccc(-c2cc(F)cc(NCc3ccco3)n2)cc1 [Compound 14]",
    "Recorded measurement": 1.4251
  },
  {
    "Molecule": "Cc1cc(CNc2cccc(-c3ccc(S(C)(=O)=O)cc3)n2)co1 [Compound 27]",
    "Recorded measurement": 1.134
  },
  {
    "Molecule": "CS(=O)(=O)c1ccc(-c2ccc3ccn(Cc4ccoc4)c3n2)cc1 [Compound 26]",
    "Recorded measurement": 0.9493
  },
  {
    "Molecule": "CS(=O)(=O)c1ccc(-c2cccc(OCc3cccs3)n2)cc1 [Compound 1]",
    "Recorded measurement": 1.251
  },
  {
    "Molecule": "Cc1occc1CNc1cccc(-c2ccc(S(C)(=O)=O)cc2)n1 [Compound 21]",
    "Recorded measurement": 1.391
  }
]
